- Target system: recombinant RORγ Ligand Binding Domain (LBD) protein (Homo sapiens (Human), UniProt P51449)
- Sequence (P51449 269-508): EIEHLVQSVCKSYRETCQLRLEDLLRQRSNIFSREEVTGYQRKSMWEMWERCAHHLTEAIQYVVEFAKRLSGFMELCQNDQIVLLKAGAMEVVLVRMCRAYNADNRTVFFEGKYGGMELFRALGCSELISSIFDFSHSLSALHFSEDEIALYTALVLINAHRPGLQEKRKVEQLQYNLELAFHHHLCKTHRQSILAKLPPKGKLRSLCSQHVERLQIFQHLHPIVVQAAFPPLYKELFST
- Test method notes: Radio-Ligand RORγ Binding Assay (Assay 1)
- Applied conditions: competition with 25-hydroxy [26,27-3H]-cholesterol, SPA
- Description: Radio-Ligand RORγ Binding Assay (Assay 1) Compounds described herein were tested for ability to bind to RORγ in a cell-free competition assay with commercially available radio-ligand (RL), 25-hydroxy [26,27-^3H]-cholesterol (PerkinElmer, Cat. #NET674250UC), for a ligand binding site on a recombinant RORγ Ligand Binding Domain (LBD) protein expressed as a 6×His-Glutathione-S-Transferase (GST) fusion. […] SPA signal for tritium beta radiation was registered on PerkinElmer Microbeta plate reader. […]
pKi: −log10 of the molar value.
Measured attribute: pKi

Exam item: Query (compound): CS(=O)(=O)N1CCC(CNC(=O)c2ccc3c(c2)nc(C2(F)CC2)n3Cc2cccc3c2OC(F)(F)O3)CC1 ; field requested: pKi
Marked response: > 7.00

Exam item: Suppose we examine the compound CCS(=O)(=O)c1ccc(CNC(=O)c2ccc3c(c2)nc(C2CC2)n3Cc2ccccc2OC(F)(F)F)cc1 ; what pKi value has been reported?
Marked response: > 7.00

Exam item: What does the data say about its pKi? Entry: O=C(Cc1ccc(S(=O)(=O)CCO)cc1)Nc1ccc2c(c1)nc(C(F)(F)F)n2Cc1cccc2c1OC(F)(F)O2
Marked response: > 7.00

Exam item: Would you mind telling me what pKi value was observed for CCS(=O)(=O)c1ccc(CNC(=O)c2ccc3c(c2)nc(C(F)(F)F)n3CC2CCN(C(=O)OC(C)(C)C)CC2)cc1 ?
Marked response: 6.00 to 7.00
